# System: BHT-101
# experiment: cells
# Assay type: functional, cell-based, Homo sapiens
# assay.setup: Homo sapiens, BHT-101
# Description: SANGER: Inhibition of human BHT-101 cell growth in a cell viability assay.
Kindly state IC50 for each of the entries shown.

Consider the following illustrative entries.
molecule	experimental.endpoint	result
CC1(C)CNc2cc(NC(=O)c3cccnc3NCc3ccncc3)ccc21 [MOTESANIB]	IC50	> 2 µM
C=C(c1ccc(C(=O)O)cc1)c1cc2c(cc1C)C(C)(C)CCC2(C)C [BEXAROTENE]	IC50	> 8 µM
O=C(O)c1ccc(-c2c[nH]c3ncc(-c4ccccc4)cc23)cc1C1CCCC1 [GSK-650394]	IC50	> 16 µM
COc1cc2c(Nc3ccc(NC(=O)c4ccccc4)cc3)ncnc2cc1OCCCN1CCOCC1	IC50	> 4 µM
CC(C)c1ccccc1Cc1cc(C(=O)Nc2ccc(S(=O)(=O)c3ccccc3C(C)(C)C)cc2)c(O)c(O)c1O	IC50	0.0218 µM
CCc1cncnc1N1CCN(Cc2nc3cc(C(F)(F)F)ccc3[nH]2)CC1	IC50	0.82 µM
Nc1ccn([C@@H]2O[C@H](CO)[C@@H](O)C2(F)F)c(=O)n1 [GEMCITABINE]	IC50	0.21 µM
CC(C)CCN1c2nc(Nc3cc(F)c(O)c(F)c3)ncc2N(C)C(=O)C1C (stereo unspecified)	IC50	4.11 µM

Provide IC50 for all items below, preserving their order.
1. Cn1cnc2c(F)c(Nc3ccc(Br)cc3Cl)c(C(=O)NOCCO)cc21 [SELUMETINIB]
2. Cc1cn(-c2cc(NC(=O)c3ccc(C)c(Nc4nccc(-c5cccnc5)n4)c3)cc(C(F)(F)F)c2)cn1 [NILOTINIB]
3. CO[C@H]1C[C@@H]2CC[C@@H](C)[C@@](O)(O2)C(=O)C(=O)N2CCCC[C@H]2C(=O)O[C@H]([C@H](C)C[C@@H]2CC[C@@H](OC(=O)C(C)(CO)CO)[C@H](OC)C2)CC(=O)[C@H](C)/C=C(\C)[C@@H](O)[C@@H](OC)C(=O)[C@H](C)C[C@H](C)/C=C/C=C/C=C/1C [TEMSIROLIMUS]

Return:
["0.107 µM", "0.643 µM", "0.197 µM"]
